Molecular target: human TLR7 (Homo sapiens (Human), UniProt Q9NYK1)
Sequence (Q9NYK1 27-1049): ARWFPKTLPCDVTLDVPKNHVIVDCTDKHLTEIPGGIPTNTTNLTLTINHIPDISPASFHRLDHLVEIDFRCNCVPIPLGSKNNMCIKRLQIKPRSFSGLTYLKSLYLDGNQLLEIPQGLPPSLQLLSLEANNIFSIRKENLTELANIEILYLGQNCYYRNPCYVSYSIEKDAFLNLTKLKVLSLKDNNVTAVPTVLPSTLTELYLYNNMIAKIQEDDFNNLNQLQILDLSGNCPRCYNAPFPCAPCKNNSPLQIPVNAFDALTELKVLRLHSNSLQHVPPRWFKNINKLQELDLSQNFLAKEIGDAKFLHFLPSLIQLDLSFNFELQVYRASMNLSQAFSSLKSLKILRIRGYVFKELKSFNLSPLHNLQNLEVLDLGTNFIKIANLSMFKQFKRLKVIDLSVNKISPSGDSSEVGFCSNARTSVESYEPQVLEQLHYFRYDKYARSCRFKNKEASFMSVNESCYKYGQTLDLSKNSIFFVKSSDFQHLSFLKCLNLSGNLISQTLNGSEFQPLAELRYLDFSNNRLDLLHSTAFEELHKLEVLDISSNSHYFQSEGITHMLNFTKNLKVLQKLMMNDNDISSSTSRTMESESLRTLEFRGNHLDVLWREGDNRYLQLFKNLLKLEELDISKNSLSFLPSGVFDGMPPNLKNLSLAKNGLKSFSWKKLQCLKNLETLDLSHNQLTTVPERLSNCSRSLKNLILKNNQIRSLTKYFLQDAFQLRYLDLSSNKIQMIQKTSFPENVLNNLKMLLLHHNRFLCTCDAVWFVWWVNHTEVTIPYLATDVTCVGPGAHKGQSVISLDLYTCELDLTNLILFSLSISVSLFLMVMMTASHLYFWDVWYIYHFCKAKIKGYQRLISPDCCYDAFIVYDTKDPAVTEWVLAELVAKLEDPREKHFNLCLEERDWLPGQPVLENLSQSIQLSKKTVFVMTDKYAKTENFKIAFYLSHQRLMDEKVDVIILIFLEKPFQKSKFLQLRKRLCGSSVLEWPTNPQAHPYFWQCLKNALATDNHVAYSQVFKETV
Experiment: TLR7 inhibition reporter assay (HEK-Blue cells, SEAP reporter, gardiquimod stimulation)
Type: cell-based
Settings: HEK-Blue cells overexpressing human TLR7, gardiquimod 7.5 μM
Quantity measured: IC50 (nM)

a. Cc1cc(-c2[nH]c3ccc(C4CCN(CC(=O)N(C)CCCO)CC4)cc3c2C(C)C)cc(C)n1
b. Cc1cc(-c2[nH]c3ccc(C4CCN(C(=O)c5cscn5)CC4)cc3c2C(C)C)ccn1
Exercise: compare a and b ; which one has the greater IC50? // respond with label for picked entry
b
(b: 38.2 nM, a: 10 nM)

---

Target: human TLR8 (Homo sapiens (Human))
Experiment: TLR8 inhibition reporter assay (HEK-Blue cells, SEAP reporter, R848 stimulation)
Conditions: read-out: TLR8 IC50, HEK-Blue cells overexpressing human TLR8, R848 15.9 μM
Quantity measured: IC50 (nM)

1) Cc1cc(-c2[nH]c3ccc(C4CCN(S(=O)(=O)c5cn(C)c(C)n5)CC4)cc3c2C(C)C)ccn1    84.3

1. Cc1cc(-c2[nH]c3ccc(C4CCN(C(=O)CNS(C)(=O)=O)CC4)cc3c2C(C)C)cc(C)n1
2. Cc1cc(-c2[nH]c3ccc(C4CCN(C(=O)CN(C)CCO)CC4)cc3c2C(C)C)c(F)cn1
3. COCCN1CCN(C(=O)CN2CCC(c3ccc4[nH]c(-c5cc(C)nc(C)c5)c(C(C)C)c4c3)CC2)CC1
Rank the items in ascending order with respect to IC50. # list labels per requested ordering
3, 2, 1
(3: 2.8 nM, 2: 4 nM, 1: 71.6 nM)

---

Biological target: human TLR8 (Homo sapiens (Human), UniProt Q9NR97)
Sequence (Q9NR97 27-1041): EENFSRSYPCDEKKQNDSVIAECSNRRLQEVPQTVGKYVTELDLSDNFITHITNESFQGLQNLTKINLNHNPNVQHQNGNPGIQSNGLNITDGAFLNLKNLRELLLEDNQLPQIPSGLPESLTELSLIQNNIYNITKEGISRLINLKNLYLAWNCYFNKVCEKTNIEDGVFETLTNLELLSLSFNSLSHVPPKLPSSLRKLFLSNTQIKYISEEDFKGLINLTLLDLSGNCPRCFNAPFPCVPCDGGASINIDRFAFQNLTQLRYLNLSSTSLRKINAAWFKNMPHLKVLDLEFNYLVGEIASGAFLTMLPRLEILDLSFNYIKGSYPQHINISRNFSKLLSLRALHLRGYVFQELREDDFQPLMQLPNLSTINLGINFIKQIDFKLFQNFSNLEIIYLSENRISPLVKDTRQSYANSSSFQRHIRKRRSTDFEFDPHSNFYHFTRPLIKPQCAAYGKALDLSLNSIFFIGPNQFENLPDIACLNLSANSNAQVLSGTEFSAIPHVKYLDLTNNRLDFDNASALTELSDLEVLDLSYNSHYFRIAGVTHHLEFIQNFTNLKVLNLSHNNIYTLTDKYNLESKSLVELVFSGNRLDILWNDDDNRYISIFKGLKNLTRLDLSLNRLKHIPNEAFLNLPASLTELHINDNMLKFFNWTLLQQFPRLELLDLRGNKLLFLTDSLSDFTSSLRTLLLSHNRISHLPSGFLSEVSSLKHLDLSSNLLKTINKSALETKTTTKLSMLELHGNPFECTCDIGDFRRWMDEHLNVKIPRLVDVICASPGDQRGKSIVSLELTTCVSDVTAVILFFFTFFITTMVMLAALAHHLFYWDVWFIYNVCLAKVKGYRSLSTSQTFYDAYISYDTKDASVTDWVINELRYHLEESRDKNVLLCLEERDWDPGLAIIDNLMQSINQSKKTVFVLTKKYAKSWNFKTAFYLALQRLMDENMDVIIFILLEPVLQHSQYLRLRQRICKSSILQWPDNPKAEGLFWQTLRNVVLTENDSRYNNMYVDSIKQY
Assay: TLR8 inhibition reporter assay (HEK-Blue cells, SEAP reporter, R848 stimulation);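 note: compounds tested from 0.05 nM to 50 µM, 22 h at 37 °C, SEAP measured with HEK-Blue Detection, inhibition relative to agonist plus DMSO versus a known inhibitor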
Details: read-out: TLR8 IC50, HEK-Blue cells overexpressing human TLR8, R848 15.9 μM
Quantity measured: IC50 (nM)

1) Cc1cc(-c2[nH]c3ccc(C4CCNCC4)cc3c2C(C)C)c([N+](=O)[O-])c(C)n1    8.9

I. Cc1cc(-c2[nH]c3ccc(C4CCN(Cc5ncccn5)CC4)cc3c2C(C)C)cc(C)n1
II. COCCNC(=O)CN1CCC(c2ccc3[nH]c(-c4cc(C)nc(C)c4)c(C(C)C)c3c2)CC1
III. Cc1nccc(-c2[nH]c3ccc(C4CCN(C)CC4)cc3c2C(C)C)c1C
Place the items in sequence of falling IC50. # list labels per requested ordering
III, II, I
(III: 42.1 nM, II: 10.1 nM, I: 5.8 nM)

---

Target: human TLR8 (Homo sapiens (Human))
Experiment: TLR8 inhibition reporter assay (HEK-Blue cells, SEAP reporter, R848 stimulation)
Conditions: read-out: TLR8 IC50, HEK-Blue cells overexpressing human TLR8, R848 15.9 μM
pIC50: −log10 of the molar value.
Quantity measured: pIC50

// worked examples, pIC50 included
1. Cc1cc(-c2[nH]c3ccc(C4CCN(CC(=O)NCC(C)(C)O)CC4)cc3c2C(C)C)cc(C)n1    8.14
2. Cc1cc(-c2[nH]c3ccc(C4CCN(CC(O)c5ccccc5)CC4)cc3c2C(C)C)ccn1 (centres unmarked)    7.53
3. Cc1cnccc1-c1[nH]c2ccc(C3CCNCC3)cc2c1C(C)C    7.49
4. Cc1cc(-c2[nH]c3ccc(C4CCN(C(=O)CNCCO)CC4)cc3c2C(C)C)cc(C)n1    8.01

A. Cc1cc(-c2[nH]c3ccc(C4CCN(CC(=O)NC5CCC5)CC4)cc3c2C(C)C)cc(C)n1
B. Cc1cc(-c2[nH]c3ccc(C4CCN(CC(=O)N(C)C5CCCCC5)CC4)cc3c2C(C)C)cc(C)n1
C. Cc1cc(-c2[nH]c3ccc(C4CCN(C(=O)Cn5cnnn5)CC4)cc3c2C(C)C)cc(C)n1
D. Cc1cc(-c2[nH]c3ccc(C4CCN(CC(N)=O)CC4)cc3c2C(C)C)c(F)cn1
Place the items in sequence of falling pIC50. # list labels per requested ordering
D, A, B, C
(D: 8.52, A: 7.86, B: 7.55, C: 7.18)
